tested on: 485368-065-R4-J2-PDC spheroids with HUVEC/MSC, viability; experiment: Anticancer human tumor 485368-065-R4-J2-PDC patient-derived pancreatic carcinoma cell line growth inhibition [TAK]; settings: second compound 0.3 µM; first compound 0.000316 µM; active compounds read low
A collection of compounds and their measured viability, T/C
experimental-endpoint: viability, T/C (%)

>  <compound>
CC(C)CC(NC(=O)CNC(=O)c1cc(Cl)ccc1Cl)B1OC(=O)CC(CC(=O)O)(C(=O)O)O1 (centres undefined) + CC(C)NCC(C(=O)N1CCN(c2ncnc3c2C(C)CC3O)CC1)c1ccc(Cl)cc1

>  <target-system>
485368-065-R4-J2-PDC spheroids with HUVEC/MSC, viability

>  <unit-tag>
%

>  <assay-value>
89.7

$$$$
>  <compound>
COC1CC2CCC(C)C(O)(O2)C(=O)C(=O)N2CCCCC2C(=O)OC(C(C)CC2CCC(OCCO)C(OC)C2)CC(=O)C(C)C=C(C)C(O)C(OC)C(=O)C(C)CC(C)C=CC=CC=C1C (centres undefined) + CC(C)NCC(C(=O)N1CCN(c2ncnc3c2C(C)CC3O)CC1)c1ccc(Cl)cc1

>  <target-system>
485368-065-R4-J2-PDC spheroids with HUVEC/MSC, viability

>  <unit-tag>
%

>  <assay-value>
93.1

$$$$
>  <compound>
CC(C)CC(NC(=O)C(Cc1ccccc1)NC(=O)c1cnccn1)B(O)O (centres undefined) + CC(C)NCC(C(=O)N1CCN(c2ncnc3c2C(C)CC3O)CC1)c1ccc(Cl)cc1

>  <target-system>
485368-065-R4-J2-PDC spheroids with HUVEC/MSC, viability

>  <unit-tag>
%

>  <assay-value>
90.6

$$$$
>  <compound>
CC(C)n1nc(-c2ccc3oc(N)nc3c2)c2c(N)ncnc21 + CC(C)NCC(C(=O)N1CCN(c2ncnc3c2C(C)CC3O)CC1)c1ccc(Cl)cc1

>  <target-system>
485368-065-R4-J2-PDC spheroids with HUVEC/MSC, viability

>  <unit-tag>
%

>  <assay-value>
95.7

$$$$

----------
A collection of molecules and their measured viability, T/C
test system: 485368-065-R4-J2-PDC spheroids with HUVEC/MSC, viability; experiment: Anticancer human tumor 485368-065-R4-J2-PDC cell line growth inhibition [TAK]; details: second compound 9.49 µM; first compound 1 µM; active compounds read low;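 note: spheroids exposed to compounds for seven days before readout; 100% = DMSO vehicle control wells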
experimental-endpoint: viability, T/C (%)

>  <molecule>
COc1c(OCCCN2CCOCC2)ccc2c3n(c(=NC(=O)c4cnc(N)nc4)nc12)CCN3 + CC(C)NCC(C(=O)N1CCN(c2ncnc3c2C(C)CC3O)CC1)c1ccc(Cl)cc1

>  <unit-tag>
%

>  <assay-value>
28

$$$$
>  <molecule>
CCCS(=O)(=O)Nc1ccc(F)c(C(=O)c2c[nH]c3ncc(-c4ccc(Cl)cc4)cc23)c1F + CC(C)NCC(C(=O)N1CCN(c2ncnc3c2C(C)CC3O)CC1)c1ccc(Cl)cc1

>  <unit-tag>
%

>  <assay-value>
95.6

$$$$
>  <molecule>
Cc1nc(NC(=O)N2CCCC2C(N)=O)sc1-c1ccnc(C(C)(C)C(F)(F)F)c1 (centres undefined) + CC(C)NCC(C(=O)N1CCN(c2ncnc3c2C(C)CC3O)CC1)c1ccc(Cl)cc1

>  <unit-tag>
%

>  <assay-value>
66

$$$$
>  <molecule>
CC(C)(C)c1nc(-c2cccc(NS(=O)(=O)c3c(F)cccc3F)c2F)c(-c2ccnc(N)n2)s1 + CC(C)NCC(C(=O)N1CCN(c2ncnc3c2C(C)CC3O)CC1)c1ccc(Cl)cc1

>  <unit-tag>
%

>  <assay-value>
28.3

$$$$

These data points were gathered from PubChem BioAssay AID2060355.
